Assay: label from the status in PepcDB records
TEST READOUT: protein production

SEQ STRING	TEST READOUT	VALUE REPORTED
MESRWNDEDAARFVEAARAEGQSEALGLRIYTSRLIGSDPDLVLHGGGNTSVKIRSDEGEQLMHIKGSGWDLDTIEAPGLPAVRLASLLEARNTPKLSDPDMVLLLRASLIEKDAPNPSVEALLHAFIPFDYVDHTHATAVLALADQPNMRDAIRRIYGDRLAYVPYVMPGFDLSIAADRIYRSHSDCEGLWLENHGLFSFANDARASYDLMIEFVTLAEQELARAGVALSGPQPNDGER	protein production	failed
ARQVTPGQVMVASTVAKLATIIDGEEDSTQRMGFETILPLREGNGPTLFCFHPASGFAWQFSVLSRYLDPQWSIIGIQSPRPHGPMQTAANLDEVCEAHLATLLEQQPHGPYYLLGYSLGGTLAQGIAARLRARGEQVAFLGLLDTWPPETQNWQEKEANGLDPEVLAEINREREAFLAAQQGSTSTELFTTIEGNYADAVRLLTTAHSVPFDGKATLFVAERTLQEGMTPEQAWAPWIAELDIYRQDCAHVDIISPEYFKEIGPLINTQINN	protein production	failed
MKTLVHLSDLHFGKTESQLVDAIAAEVRAVDSDLLVVSGDLTQRARKDEFLQARAFLDSLPGPRIVVPGNHDVPLWNVFARAMTPLSRYRRYIEADTDPFYADSEVAVVGINTARSLTIKDGRINVRQLKAATEKFAHMSDDITRIVVTHHPFEGRDLESDDGIVGRADLAMHAFSRSGVDIILSGHQHLHRAGSSARRYLIDGYAALLIQAGTAVSSRLRRAANSFNIIRIEHPRISVECRAWQPSQSGFETSASYSFRQGPGGWKPT	protein production	failed

----------
Experiment: label from the status in PepcDB records

SEQ STRING	protein production
MADTNYIRDLSLHRNNHVLYVKILSIWDNQSMIFGTPTTMILYDVKGTRIDTRVPWGDYLNNFKPSLFEGKWYYIADFRLKRATSIPKYSSFNYEIEFMWHTKMWPVSDRSDESSLQFIHADEIESESEDYVTDAIGVISSVSTEARFPYVCREGETDYEARYVTFTIRDNLDRIITCVARGSACESFLTKFYRLIGMKTYNYEPITTVLRFFRASNFKGSKALISEHGCSRIFIEESFPDFDVTVYINWFACEDDGSVEGKIEYFVEN	failed
MCARPCRPTNLPTRFSMSNSDPSPTLEGNYDLLFRFAFWLFVGAISFSVAGMLLLRLVPSSMAIFGPIYTKLVKTPTWTFMTLLALLPLLMYGPTLGWKKISLIAAWGCIIGGASELIGTTGWLNVGGIALPFGEYEYTQWLGPKIAGHVPYFIPPSWFAMSIVSLDLARRVTTQRVGSLLLGTLFMVLWDVSLDPAMNQAFPFWEYGVDGVFFGMPLSNWAGWAGVTFVILLGYEYIGKGAPIQNEWAPWVYALNCIFPLSICLLRDVYLPALIGGLATLVPFLLLWRYNPDSLKRSVSLFRG	failed
MEFWESSFIEKQTMWGFEPTESAILTKDFFLEKNVKNILVPGIGYGRNAKVFIDNGINVTGIEISKTAIDLARENGLEDVSMYHGSVNEMPFDNKLYDGIFSHALLHLLNEQEREKFIEDCYNQLKPGGYMVFTTVSKKAPMYGKGKQLDKDYYEIMDGVKMFFYDSESIKKDFNQYRLVQVSEIDEPNKNMANKPSINFLMIKCKKER	failed

----------
Assay: label from the status in PepcDB records
TEST READOUT: protein production

SEQ STRING	TEST READOUT	VALUE REPORTED
MLKLLWIALGGSLGALCRYGLSVLARWGLPPTVPWGTLAANLVGCFLIGGLWVLAAQYSFSEELRVFIFTGGIGSLTTFSTYSLESLLLLREGRVWAGLANVLVSNVLGLVLVAIGAGCALFLLGGPVAAFGA	protein production	failed
MTVQTAIFDLIKQAKTIIIHRHQRPDPDAIGSQLGLAAIIKASFPAKRVLTPGKQYHGFDWLGQMDEVTEADYQDALVLILDTANQPRIDGELWNQGKTIVKIDHHPNDDAFGDPQWVDVDASSTSEMIYNWYAPLAAELTLTANAARLLYAGIVGDTGRFLYSATKPSTMRAAAALMEAGADAEAVNRIEDTITLPVARLSAYVYEHLTQLDSGAAYVILTNAILDSFAIGDASTAGVVPLPGRIDTVKCWAIFVQQKEGDFRIRLRSKGPSINGVAKNHDGGGHALASGAKAKDQQEIETVVRELDQVASQYEKEVLEHHHHHH	protein production	failed
HGGHRQYAKEILSTSSAAMASQRSFLGLEPTIKKIPAFRAVYLRHKGYNKSIALSWQKLMAWGFEHQISSQARQIGIHHDNPSITPLAECRYIAALEVEEGFRAQGLLGVMEFPPTLCAVFEVQGRYGDVLGLIDYVYHEWLPQSGYEAKTIPAFALYQKNHFLDPLGNFQLDFCLPVGVV	protein production	failed
MRSRPTEGNLLVSIGIPFLNPGPYLDLAVRSVFAQTYLNWELILVDDGSTDGSYERAVAIQDPRVRVLRDGQNKGLPARLNEIVRLAKGELVARMDADDAMHPLRLEKQVGFLQANPELDGVTTGAYLIDAEDRPIALLPGRQPSAQEVLARGGFLHPSLLARKSWFEAHPYSLDYPRAEDRELFVRTFKTSRLHVLSEPLYFYRWFGVPRGKTLRIGYRSERKVMWKYGPNLVGWGPSLRLIALSFGKELLTWFLEWTHLEKGFQTRRAFQPLLEMDQREALRTLKVIRETCVPGWDLEHHHHHH	protein production	failed
MKAFTVHQAKTHLSRLLKAVEEGEEVVILRGKTPVARLVPYRKGKRPLGFVPGKLPESFFEPLPEEELALWEGATS	protein production	not failed
MASEAVNVWSRTSLILIMLSAAILVVAVGAVMNSGLVESLQVPLWEKWVILVFLFALIIGIIGPLSGVGGGVIFVGLGMAILPFNVDFIRGAGLVAALSTSLNSAPYFTKKGLANLRIVAPLVSVSTIFSVFGGVIGLWISNSFPEGSYYVKMSLGVVLLVLLLILSRSKNVEYPPPREKKDRLSEMIDLTGGWYEPTLNRIVTYEASNLPLAMLAFSGVGFLAGMFGLGAGWANVPILNLVMGLPLKAAVASSMLILAINDSASLWVYLANGAVLPIVVVPVVLGISIGSRIGSRLAAKTKPKVIKRLVIALIALSGVVNIIQGLSGIGLLNL	protein production	failed
MLDKNVLNEIGSKVNEILASSPARDVEKNMRAMLTGAFARLDLVTREEFDVQQEVIKRTRIKLAELEEKVRKLEQQLQQPAEVVSSNETGDA	protein production	not failed
MRKTYKYRLYTCERNKHLVESIELASVVWNHFVALTRRYYEIYGEYPGYYALKKHLTKLKQRDKGHWYDLNSQALQNVIERLDQAYQRFFEIDSAGRPGFKKREKYTSFTLTQTGWKLLGGNRVRIQNHNYKFVKSRPIKGEIKTVTIKRDACGYLWICFSVEKEPPTPELPRTGNAVGLDFGLKDFLVTSDGDRIQAPEPLQESLEEVQDLHKKLSRKERGSNNRKEAKRRLAKKYRQIDNQRKDFHFKLARRLFSRYDVVCIEELNVGAMKELWGRKVSDLGFASFVKILEHVAQKEGKEVRKIDRWFPSSQTCSDCSHRYEDLSLEERTWTCEECGSLHDRDLNAARNVLERALSSAEAGVRPSGAAARVARSS	protein production	failed
MKVLREDEESEIVKQFLDDNNSVIVDFDPIDLYEAVHPPFSIRLSIDRISAMPLSILRRRAAAFVSDPQTLSKLLNNDIAGKFDFIYDNSNRSWQKYYPFSYYRSINAADLYENIKAYTVLDVREPFELIFGSIANSINIPISELREKWKILERDKKYAVICAHGNRSAAAVEFLSQLGLNIVDVEGGIQSWIEEGYPVVYGRESAED	protein production	failed
MTLGSQHSPLFALVQETLRKRILSGAYAQGERLVEGDLAEEMGVSRIPVREALRALAAAGLVRIEPRRGASVASLSPEHARDIVEVRATLEALNARLAAQRRNPQQVADMDRAIRDGAHACERGDTAALVEQNRHFHELLGGVSTNAVLQDLMRSLRDRTALLFARNSVTRAADILDEHAGILQAVTAGDADLASLLAARHVHNAAQWYFERPVDRKAVAADTD	protein production	failed
MKMMDANEIISFIQNSTKSTPVKVYVKGELEGINFGESAKAFINGNTGVVFGEWSEIQTAIEENQSKIEDYVVENDRRNSAIPMLDLKNIKARIEPGAIIRDQVEIGDNAVIMMGASINIGSVIGEGTMIDMNVVLGGRATVGKNCHIGAGSVLAGVIEPPSAKPVVIEDDVVIGANAVVLEGVTVGKGPVVAAGAIVVNDVEPYTVVAGTPAKKIKDIDEKTKGKTEIKQELRQL	protein production	not failed
MEYYQPVEINVLSAQDLNSINLLFRPTVYVSVSVTRGSRDKQVTPAAAWDKKFLRWNYRMKFYIEDDKVRRNESVFVFQIKCKRFFGSDQVVGKLFIPGCRLGVWGNIRHEPSAPCEDDIYA	protein production	failed
MPEYSSVTGLEGVKFAPLKKENGFYVATKIIDYPYAINAKVNTETSTEKQYADNKLVDMAVTTGSTKLELEMRDLPMEILEELFGIEETDGIYMFKKNVIAPWVAMSFYGPKANGKNRHVGLVKGRFSLPDDEWKTKEEKTDFQTVKLSAEFMEREQDNAYKVLADEDAPNFNLDKFYEKVFGNAYKNPLEHHHHHH	protein production	not failed
